Study System: human PGD receptor (hDP) (Homo sapiens)
Sequence (Q13258 whole entry): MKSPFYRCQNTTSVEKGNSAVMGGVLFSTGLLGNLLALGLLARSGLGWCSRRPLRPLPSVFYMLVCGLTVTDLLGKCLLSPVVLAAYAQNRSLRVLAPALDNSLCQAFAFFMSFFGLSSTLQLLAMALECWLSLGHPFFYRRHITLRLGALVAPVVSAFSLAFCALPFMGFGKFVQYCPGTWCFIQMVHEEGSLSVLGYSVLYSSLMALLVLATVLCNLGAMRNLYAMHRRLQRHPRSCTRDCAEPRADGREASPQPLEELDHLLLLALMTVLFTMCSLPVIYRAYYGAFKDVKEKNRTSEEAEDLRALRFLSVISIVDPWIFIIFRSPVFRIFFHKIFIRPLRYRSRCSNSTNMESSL
Assay Procedure: cAMP antagonism test, human prostaglandin D receptor signal
Type: cell-based
Condition: selectivity towards hDP, IC50 measured by cAMP antagonism test
Endpoint: Selectivity hEP2/hDP

# example entries with known answers
Compound | Selectivity hEP2/hDP
Cc1c(C(=O)NCC2COCCO2)ccc2nn(CC3CCN(C(=O)c4ccc(Oc5ccc(C(F)(F)F)cc5)cc4)CC3)cc12 (single isomer, unassigned) [Example 419] | xxx (xxx >100)
Cc1c(C(=O)NCC2CCCCO2)ccc2nn(CC3CN(C(=O)c4ccc(Cl)cc4)C3)cc12 (single isomer, unassigned) [Example 145] | xxx (xxx >100)
Cc1c(C(=O)NCC2COCCO2)ccc2nn(CC3CCN(C(=O)c4ccc(Oc5ccc(C(F)(F)F)cc5)cc4)CC3)cc12 (single isomer, unassigned) [Example 418] | xxx (xxx >100)
Cc1c(C(=O)NCC2COCCO2)ccc2nn(CC3CN(C(=O)c4ccc(Cl)cc4)C3)cc12 (single isomer, unassigned) | xxx (xxx >100)
Cc1c(C(=O)NCC2CCCCO2)ccc2nn(CC3CCN(C(=O)c4ccc(Cl)cc4)CC3)cc12 (single isomer, unassigned) [Example 241] | xxx (xxx >100)
Cc1c(C(=O)NCC2CCCCO2)ccc2nn(CC3CCN(C(=O)c4ccc(Oc5ccc(C(F)(F)F)cc5)cc4)CC3)cc12 (single isomer, unassigned) [Example 417] | xxx (xxx >100)

Okay, now this compound:
What is its Selectivity hEP2/hDP for human PGD receptor (hDP) (Homo sapiens)? Entry: Cc1c(C(=O)NCC2COCCO2)ccc2nn(CC3CCN(C(=O)c4ccc(Cl)cc4)CC3)cc12 (single isomer, unassigned) xxx (xxx >100)

* * *

Study System: EP4 subtype of the human PGE2 receptor (hEP4) (Homo sapiens)
Sequence (P35408 whole entry): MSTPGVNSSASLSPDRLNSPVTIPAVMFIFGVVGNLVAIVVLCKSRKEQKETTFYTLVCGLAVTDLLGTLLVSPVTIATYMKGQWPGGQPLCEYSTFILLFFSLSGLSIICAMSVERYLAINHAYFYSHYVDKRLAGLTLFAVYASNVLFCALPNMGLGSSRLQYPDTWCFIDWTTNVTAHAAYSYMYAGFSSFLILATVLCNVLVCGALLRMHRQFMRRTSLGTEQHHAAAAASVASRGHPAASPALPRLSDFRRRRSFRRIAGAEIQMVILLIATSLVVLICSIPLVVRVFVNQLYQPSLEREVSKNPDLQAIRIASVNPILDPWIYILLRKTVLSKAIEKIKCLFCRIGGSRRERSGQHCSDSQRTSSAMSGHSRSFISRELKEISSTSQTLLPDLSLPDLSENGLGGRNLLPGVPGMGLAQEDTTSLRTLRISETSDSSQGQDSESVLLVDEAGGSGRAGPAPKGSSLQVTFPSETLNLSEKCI
Assay Procedure: cAMP antagonism test, human prostaglandin E2 (subtype EP4) receptor signal
Format: cell-based
Condition: selectivity towards hEP4, IC50 measured by cAMP antagonism test

Compound | Selectivity hEP2/hEP4
COC(C)CNC(=O)c1ccc2nn(CC3CN(C(=O)c4ccc(Cl)cc4)C3)cc2c1C (single isomer, unassigned) | xxx (xxx >100)
Cc1c(C(=O)NCC2CCCCO2)ccc2nn(CC3CCN(C(=O)c4ccc(Cl)cc4)CC3)cc12 (single isomer, unassigned) [Example 241] | xxx (xxx >100)
Cc1c(C(=O)NCC2CCCCO2)ccc2nn(CC3CCN(C(=O)c4ccc(Cl)cc4)CC3)cc12 (single isomer, unassigned) [Example 240] | xxx (xxx >100)

* * *

Study System: EP2 subtype of the human PGE2 receptor (hEP2 receptor) (Homo sapiens)
Sequence (P43116 whole entry): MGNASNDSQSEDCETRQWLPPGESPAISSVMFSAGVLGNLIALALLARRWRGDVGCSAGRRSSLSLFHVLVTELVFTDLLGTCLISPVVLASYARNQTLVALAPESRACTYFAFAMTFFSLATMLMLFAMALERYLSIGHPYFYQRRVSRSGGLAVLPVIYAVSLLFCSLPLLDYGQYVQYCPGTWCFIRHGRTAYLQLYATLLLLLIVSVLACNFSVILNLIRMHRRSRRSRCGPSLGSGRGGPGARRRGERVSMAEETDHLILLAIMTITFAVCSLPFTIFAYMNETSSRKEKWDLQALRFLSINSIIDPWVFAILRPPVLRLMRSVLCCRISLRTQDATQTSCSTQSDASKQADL
Assay Procedure: cAMP antagonism test, human prostaglandin E2 (subtype EP2) receptor signal
Endpoint: IC50

Smiles Text | Study System | IC50
Cc1c(C(=O)NCCOCC(F)(F)F)ccc2nn(CC3CCN(C(=O)c4ccc(-c5ccc(F)cc5)cc4)CC3)cc12 | EP2 subtype of the human PGE2 receptor (hEP2 receptor) (Homo sapiens) | > 50 nM
COCCNC(=O)c1ccc2nn(CC3CN(C(=O)c4ccc(Cl)cc4)C3)cc2c1C | EP2 subtype of the human PGE2 receptor (hEP2 receptor) (Homo sapiens) | > 50 nM
Cc1ccc(C(=O)N2CC(Cn3cc4c(C)c(C(=O)NCCOCC5CC5)ccc4n3)C2)cc1 | EP2 subtype of the human PGE2 receptor (hEP2 receptor) (Homo sapiens) | > 50 nM
COCCNC(=O)c1ccc2nn(CC3CCN(C(=O)c4ccc(-c5ccc(OC)cc5C)cc4)CC3)cc2c1C | EP2 subtype of the human PGE2 receptor (hEP2 receptor) (Homo sapiens) | > 50 nM
COCCNC(=O)c1ccc2nn(CC3CN(C(=O)c4ccc(Oc5ccc(C(F)(F)F)cc5)cc4)C3)cc2c1C | EP2 subtype of the human PGE2 receptor (hEP2 receptor) (Homo sapiens) | > 50 nM

What is its IC50 for EP2 subtype of the human PGE2 receptor (hEP2 receptor) (Homo sapiens)? Entry: `COCCNC(=O)c1ccc2nn(CC3CCN(C(=O)c4ccc(OC(F)F)cc4F)CC3)cc2c1C` > 50 nM

Input `Cc1c(C(=O)NCCOC2CCC2)ccc2nn(CC3CN(C(=O)c4ccc(OC(F)(F)F)cc4)C3)cc12` > 50 nM
